tested target: CYP2C9 (Homo sapiens)
Sequence (P11712 whole entry): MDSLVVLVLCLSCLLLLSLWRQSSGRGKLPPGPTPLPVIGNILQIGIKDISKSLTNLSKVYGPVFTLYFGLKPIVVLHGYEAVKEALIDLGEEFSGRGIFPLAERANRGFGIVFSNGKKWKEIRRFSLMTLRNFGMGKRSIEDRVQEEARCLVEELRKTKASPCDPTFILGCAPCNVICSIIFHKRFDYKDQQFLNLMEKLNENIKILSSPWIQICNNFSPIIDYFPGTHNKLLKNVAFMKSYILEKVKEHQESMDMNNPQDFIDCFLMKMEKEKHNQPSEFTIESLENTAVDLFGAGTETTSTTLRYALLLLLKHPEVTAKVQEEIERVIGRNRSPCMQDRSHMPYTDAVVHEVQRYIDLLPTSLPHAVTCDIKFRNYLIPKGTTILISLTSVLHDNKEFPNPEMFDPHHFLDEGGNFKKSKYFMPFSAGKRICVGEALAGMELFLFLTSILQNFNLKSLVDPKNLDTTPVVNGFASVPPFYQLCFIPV
assay text: Inhibition of CYP2C9 in human liver microsomes assessed as tolbutamide conversion to 4-hydroxy tolbutamide at 25 uM preincubated for 10 mins followed by NADPH addition measured after 15 mins by LC-MS/MS analysis relative to control
Assay type: ADME
reported conditions: probe tolbutamide
endpoint label: inhibition at 0.25 h, 25 µM (%)
One number for each entry, in %.

Exercise: Dear colleague, I am looking for the recorded inhibition at 0.25 h, 25 µM of the following compound: Fc1ccc2c(c1)c1c(n2CCCOc2ccc(Cl)cc2)CCNC1
Solution: 36

* * *

Task for the reader: assign each of the following molecules its reported MIC80.
Test system: Candida albicans
assay text: Antifungal activity against fluconazole-sensitive Candida albicans SC5314 after 24 hrs by serial dilution method
Assay type: functional
reported conditions: SC5314, 24 h

Parameter requested: MIC80. Apply to each item below.
1. CN1CCc2c(c3cc(Cl)ccc3n2Cc2cccc(Cl)c2)C1
2. Cc1ccc2c(c1)[C@@H]1CN(C)CC[C@@H]1N2C(=O)c1ccc2ccccc2c1
3. Fc1ccc2c(c1)c1c(n2CCCOc2ccccc2)CCNC1

Solution:
64 µg/mL
32 µg/mL
8 µg/mL

I would be grateful if you could provide MIC80 for each of the following entries.
1. CN1CCc2c(c3cc(Cl)ccc3n2C(=O)c2ccccc2Br)C1
2. Fc1ccc2c(c1)c1c(n2CCCOc2cccc(Br)c2)CCNC1
3. Fc1ccc(NCCCn2c3c(c4cc(F)ccc42)CNCC3)cc1
4. Fc1ccc(OCCCn2c3c(c4cc(Br)ccc42)CNCC3)cc1
5. CN1CCc2c(c3cc(Cl)ccc3n2CC(O)c2ccccc2)C1 (stereo not drawn)
6. CN1CCc2c(c3cccc(Cl)c3n2CCCOc2ccc(Cl)cc2)C1
7. Fc1ccc2c(c1)c1c(n2CCCOc2ccc(Br)cc2)CCNC1

Solution:
1. > 64 µg/mL
2. 2 µg/mL
3. 8 µg/mL
4. 4 µg/mL
5. > 64 µg/mL
6. 32 µg/mL
7. 8 µg/mL

Would you mind listing MIC80 for each of the following molecules?
1. Clc1ccc2c(c1)c1c(n2CCCOc2cccc(Br)c2)CCNC1
2. Cc1cccc(OCCCn2c3c(c4cc(F)ccc42)CNCC3)c1
3. Cc1ccc2c(c1)c1c(n2CCCOc2ccc(F)cc2)CCNC1
4. Fc1ccc(F)c(OCCCn2c3c(c4cc(F)ccc42)CNCC3)c1
5. CN1CCc2c(c3cc(Cl)ccc3n2CC#N)C1
6. Fc1cc(F)c(OCCCn2c3c(c4cc(F)ccc42)CNCC3)c(F)c1
7. Cc1ccc2c(c1)c1c(n2CCCOc2cccc(Br)c2)CCNC1
8. Fc1ccc2c(c1)c1c(n2CCCOc2c(F)cccc2F)CCNC1

Solution:
["8 µg/mL", "8 µg/mL", "4 µg/mL", "4 µg/mL", "> 64 µg/mL", "8 µg/mL", "16 µg/mL", "4 µg/mL"]

Go through the items and report each one's MIC80.
1. Fc1ccc(OCCCn2c3c(c4cc(Cl)ccc42)CNCC3)cc1
2. CN1CCc2c(c3cc(Cl)ccc3n2C(=O)c2ccc(Cl)cc2)C1
3. CN1CCc2c(c3cc(Cl)cc(Cl)c3n2CCCOc2ccc(Cl)cc2)C1

Solution:
1: 4 µg/mL; 2: > 64 µg/mL; 3: > 64 µg/mL

Hi, could you look up MIC80 for each item in my list?
1. CN1CCc2c(c3cc(Cl)ccc3n2C(=O)Cc2ccccc2)C1
2. CN1CCc2c(c3cc(Cl)ccc3n2CCCOc2ccc(Cl)cc2)C1

Solution:
> 64 µg/mL
64 µg/mL

Data provenance: ChEMBL document CHEMBL3286225
